For each entry below, report its mean OD405nm of bound serum IgG (+ scFv) value.
ASSAYED_TARGET: T1, PF4/heparin complex (human PF4 complexed with heparin) (human, UniProt P02776 32-101)
T1 construct: Multimeric complex of PF4 with heparin (not a protein); In the EIAs: PF4 captured on biotinylated heparin on streptavidin plates; In the SRA: platelets with 0.2 U/mL heparin; also called PF4 and heparin complexes
T1 sequence: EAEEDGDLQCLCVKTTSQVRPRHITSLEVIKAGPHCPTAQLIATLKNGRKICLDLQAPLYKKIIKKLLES
PROCEDURE_TEXT: competition EIA, scFv 50 µg/mL; competitor HIT-positive sera antibodies, n=10
Method: Inhibitory PF4/heparin IgG-specific Streptavidin Enzyme Immunoassay (EIA). The binding activity of wildtype and mutant scFv antibodies to PF4/heparin complexes was measured using an inhibitory PF4/heparin IgG-specific EIA with a streptavidin-biotin capture system. […] The optical density (OD) was measured at 2 min intervals for 30 min at 405 nm (OD₄₀₅ₙₘ) using a BioTek 800 TS plate reader (BioTek Instruments Inc., Winooski, VT) to determine if anti-PF4/heparin antibody binding was inhibited. […]
Form entry: value (OD405nm) — number only.

response.value for Mutant D scFv, scFv(Y156H) (scFv, VL-linker-VH; histidine-tagged, from E. coli BL21; also called Mut D; not shown: histidine tag from the pADL-22c vector) scFv: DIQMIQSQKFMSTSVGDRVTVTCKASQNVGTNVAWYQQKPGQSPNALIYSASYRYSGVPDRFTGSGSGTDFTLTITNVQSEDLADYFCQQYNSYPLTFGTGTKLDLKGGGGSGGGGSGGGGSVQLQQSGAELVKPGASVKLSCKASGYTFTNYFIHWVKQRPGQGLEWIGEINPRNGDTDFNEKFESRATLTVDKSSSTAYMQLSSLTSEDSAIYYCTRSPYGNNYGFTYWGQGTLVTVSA (field: mean OD405nm of bound serum IgG (+ scFv)) = 0.283

response.value for Mutant E scFv, scFv(Y156H, D180G, Q233P) (scFv, VL-linker-VH; histidine-tagged, from E. coli BL21; also called Mut E; not shown: histidine tag from the pADL-22c vector) scFv: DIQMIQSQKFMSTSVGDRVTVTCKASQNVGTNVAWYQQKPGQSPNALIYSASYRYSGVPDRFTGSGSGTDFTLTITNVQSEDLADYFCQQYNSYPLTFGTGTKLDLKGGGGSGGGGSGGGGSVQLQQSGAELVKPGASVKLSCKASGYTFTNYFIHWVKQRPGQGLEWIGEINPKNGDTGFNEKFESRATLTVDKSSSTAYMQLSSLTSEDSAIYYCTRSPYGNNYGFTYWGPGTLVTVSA (field: mean OD405nm of bound serum IgG (+ scFv)) = 0.319

response.value for Mutant C scFv, scFv(S50N, Y53H) (scFv, VL-linker-VH; histidine-tagged, from E. coli BL21; also called Mut C; not shown: histidine tag from the pADL-22c vector) scFv: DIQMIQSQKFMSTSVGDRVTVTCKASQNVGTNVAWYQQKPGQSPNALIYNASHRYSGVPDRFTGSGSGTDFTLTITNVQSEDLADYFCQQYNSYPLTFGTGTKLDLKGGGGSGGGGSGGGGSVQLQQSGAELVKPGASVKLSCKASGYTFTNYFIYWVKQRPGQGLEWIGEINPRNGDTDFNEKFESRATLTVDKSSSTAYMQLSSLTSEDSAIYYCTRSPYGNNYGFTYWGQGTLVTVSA (field: mean OD405nm of bound serum IgG (+ scFv)) = 0.799

response.value for Mutant B scFv, scFv(R18K, N152K, D180N) (scFv, VL-linker-VH; histidine-tagged, from E. coli BL21; also called Mut B; not shown: histidine tag from the pADL-22c vector) scFv: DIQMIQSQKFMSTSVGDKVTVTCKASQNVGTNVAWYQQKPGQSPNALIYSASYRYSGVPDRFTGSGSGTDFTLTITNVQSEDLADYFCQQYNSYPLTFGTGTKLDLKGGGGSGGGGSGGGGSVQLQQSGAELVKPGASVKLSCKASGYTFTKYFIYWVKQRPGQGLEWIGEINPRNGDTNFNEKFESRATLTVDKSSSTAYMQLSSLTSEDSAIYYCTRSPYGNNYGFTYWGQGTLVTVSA (field: mean OD405nm of bound serum IgG (+ scFv)) = 0.275

response.value for Wildtype scFv (KKO-derived single chain variable fragment) (scFv, VL-(G4S)3 linker-VH; expressed in E. coli BL21 from pADL-22c, purified on Ni-NTA as histidine-tagged scFv, about 28 kDa; also called WT; KKO-scFv; not shown: histidine tag from the pADL-22c vector) scFv: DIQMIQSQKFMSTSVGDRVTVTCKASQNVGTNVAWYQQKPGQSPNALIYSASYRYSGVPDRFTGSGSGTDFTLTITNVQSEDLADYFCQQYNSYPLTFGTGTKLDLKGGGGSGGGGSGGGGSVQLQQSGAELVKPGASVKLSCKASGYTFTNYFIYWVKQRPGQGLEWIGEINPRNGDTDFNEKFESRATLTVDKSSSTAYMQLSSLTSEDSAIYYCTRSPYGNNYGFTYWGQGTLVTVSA (field: mean OD405nm of bound serum IgG (+ scFv)) = 0.931

response.value for Mutant F scFv, scFv(E183V, E186K, G223R) (scFv, VL-linker-VH; histidine-tagged, from E. coli BL21; also called Mut F; not shown: histidine tag from the pADL-22c vector) scFv: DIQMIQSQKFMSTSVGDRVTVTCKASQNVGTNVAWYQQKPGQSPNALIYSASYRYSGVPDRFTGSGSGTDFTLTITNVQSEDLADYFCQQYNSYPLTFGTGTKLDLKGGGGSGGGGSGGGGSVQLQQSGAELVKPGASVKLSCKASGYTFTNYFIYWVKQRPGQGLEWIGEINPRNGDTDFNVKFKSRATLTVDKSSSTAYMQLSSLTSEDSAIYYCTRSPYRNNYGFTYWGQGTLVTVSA (field: mean OD405nm of bound serum IgG (+ scFv)) = 0.281
